# experimental_target: OATP1B3 (Homo sapiens, UniProt Q9NPD5)
# Sequence (Q9NPD5 whole entry): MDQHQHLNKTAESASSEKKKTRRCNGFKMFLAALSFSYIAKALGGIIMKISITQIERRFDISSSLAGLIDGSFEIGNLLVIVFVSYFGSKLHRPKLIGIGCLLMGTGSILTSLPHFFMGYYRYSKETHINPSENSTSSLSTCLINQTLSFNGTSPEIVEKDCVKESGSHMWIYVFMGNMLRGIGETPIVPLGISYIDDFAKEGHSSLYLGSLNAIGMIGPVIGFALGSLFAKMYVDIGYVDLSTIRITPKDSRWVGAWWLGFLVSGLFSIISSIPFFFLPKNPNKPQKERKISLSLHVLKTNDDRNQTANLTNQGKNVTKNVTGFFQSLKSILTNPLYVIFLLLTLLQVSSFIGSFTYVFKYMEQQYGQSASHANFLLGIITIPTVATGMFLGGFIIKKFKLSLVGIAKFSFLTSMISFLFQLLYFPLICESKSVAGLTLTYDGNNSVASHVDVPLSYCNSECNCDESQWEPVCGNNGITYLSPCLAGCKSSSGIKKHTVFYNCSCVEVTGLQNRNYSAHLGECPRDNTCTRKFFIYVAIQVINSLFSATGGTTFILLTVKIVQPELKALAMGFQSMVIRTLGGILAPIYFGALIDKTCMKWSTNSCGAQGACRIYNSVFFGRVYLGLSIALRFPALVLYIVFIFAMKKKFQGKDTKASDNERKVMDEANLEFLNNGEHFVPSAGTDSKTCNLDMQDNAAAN
# measurement_description: OATP1B3 inhibition assay using 3H-E217βG as probe substrate, HEK293FT cells
# Format: cell-based
# Parameters: expressed in transfected cells
# cond: human, HEK293FT cells transfected with OATP1B3, probe 3H-E217βG (1 μM), at 100 μM, read-out: Maximum inhibition at highest test conc. (% of control)
# Description: HEK293FT-Mock and OATP-transfected cells (1×10^5 cells each) were seeded 24 hr prior to assay. Pre-rinsed ells were incubated for 3 minutes with 1 μM ^3H-E217βG in HK buffer in the presence of various concentrations of test compound or positive control rifampicin. […] The amount of substrate inside the cells was determined by liquid scintillation reader. […] IC50 was determined according to the procedures described in Example 5. […]
measured_parameter: inhibition at 3 min, 100 µM

QUERY: Fill in the blank: the reported inhibition at 3 min, 100 µM of O=C(NCc1c(F)cc(F)c(OS(=O)(=O)O)c1F)c1cn2c(c(O)c1=O)C(=O)N1C(C2)O[C@@H]2CC[C@H]1C2 (stereo partly shown) [Metabolite M20] is ____.
RESULT: 49%
